test system: VA-ES-BJ tumor spheroid viability; test: Anticancer human tumor VA-ES-BJ cell line growth inhibition; details: second compound 1 µM; first compound 1 µM; stronger effect = lower value; spheroids with HUVEC and MSC;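 further: spheroids exposed to compounds for seven days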;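 on viability, T/C: percent of DMSO vehicle control viability so 100% = untreated growth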
Can you tell me viability, T/C for the items I'm about to list?

CC1COCCN1c1cc(-c2ccnn2C)c2ccnc(-c3ccn[nH]3)c2n1 (stereo unspecified) + Cn1nnc2c(C(N)=O)ncn2c1=O	8.26%
CC(C)n1c(=O)n(C)c2cnc3cc(F)c(-c4ccc(OCCCN5CCCCC5)nc4)cc3c21 + Cn1nnc2c(C(N)=O)ncn2c1=O	105%
COc1cc(C)[nH]c(=O)c1CN1CCc2c(Cl)cc(C(OC)C3COC3)c(Cl)c2C1=O (stereo unspecified) + Cn1nnc2c(C(N)=O)ncn2c1=O	61.4%

Quick one: give me viability, T/C for each item below, same order please.
1. Cc1cc(C)c(CNC(=O)c2cc(-c3ccc(CN4CCOCC4)cc3)cc3c2cnn3C2CCCC2)c(=O)[nH]1 + Cn1nnc2c(C(N)=O)ncn2c1=O
2. COc1ccc([C@@H](O)c2cc(-c3ncnc4cc(N5CCOCC5)ccc34)c(F)cc2Cl)nn1 + Cn1nnc2c(C(N)=O)ncn2c1=O
3. [2H]c1nc(C)nc([2H])c1-c1cc(NC[C@@H](C)c2cccc3c(C(=O)NC)ccnc23)ncn1 + Cn1nnc2c(C(N)=O)ncn2c1=O

113%
37.9%
94.7%

----------
System: VA-ES-BJ tumor spheroid viability
Experiment: Anticancer human tumor VA-ES-BJ cell line growth inhibition;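 further: spheroids exposed to compounds for seven days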
Conditions: curve of first compound; second compound 100 µM; spheroids with HUVEC and MSC
Protocol: Multicellular complex tumor spheroid response to DNA repair inhibitors in combination with DNA-damaging drugs This study explores the anticancer activities of DNA-damaging drugs and inhibitors of DNA damage repair, both as single agents and in combinations. […] Twenty-six patient-derived or established malignant cell lines were evaluated representing sarcoma, melanoma, small cell lung cancer (SCLC), non-small cell lung cancer (NSCLC), as well as bladder, ovarian and pancreatic cancers. […]
Recorded endpoint: IC50 (µM)
One number for each entry, in µM.

Examples with answers:
Cc1sc2c(c1C)C(c1ccc(Cl)cc1)=NC(CC(=O)Nc1ccc(O)cc1)c1nnc(C)n1-2 (stereo not given) + Cn1nnc2c(C(N)=O)ncn2c1=O	0.0686
COc1cc(C)[nH]c(=O)c1CN1CCc2c(Cl)cc(C(OC)C3COC3)c(Cl)c2C1=O (stereo not given) + Cn1nnc2c(C(N)=O)ncn2c1=O	2.22

Hi team, please reply with IC50 for each item in this list.
1. CC1COCCN1c1cc(-c2ccnn2C)c2ccnc(-c3ccn[nH]3)c2n1 (stereo not given) + Cn1nnc2c(C(N)=O)ncn2c1=O
2. CNCc1ccc(-c2cc(-c3nc(-c4ccc(S(=O)(=O)C(C)C)cc4)cnc3N)on2)cc1 + Cn1nnc2c(C(N)=O)ncn2c1=O
3. O=C(c1cc(Cc2n[nH]c(=O)c3ccccc23)ccc1F)N1CCN(C(=O)C2CC2)CC1 + Cn1nnc2c(C(N)=O)ncn2c1=O
4. COc1ccc([C@@H](O)c2cc(-c3ncnc4cc(N5CCOCC5)ccc34)c(F)cc2Cl)nn1 + Cn1nnc2c(C(N)=O)ncn2c1=O

1: 0.0561; 2: 0.188; 3: 0.669; 4: 0.547

----------
test system: VA-ES-BJ tumor spheroid viability; test: Anticancer human tumor VA-ES-BJ cell line growth inhibition; details: second compound 0.0949 µM; first compound 3 µM; stronger effect = lower value; spheroids with HUVEC and MSC;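 further: spheroids exposed to compounds for seven days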;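 on viability, T/C: percent of DMSO vehicle control viability so 100% = untreated growth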
I'd be grateful if you could share measured viability, T/C for these entries.
Give bare numbers, in %.

Cn1ncnc1[C@H]1c2n[nH]c(=O)c3cc(F)cc(c23)N[C@@H]1c1ccc(F)cc1 + CC[C@@]1(O)C(=O)OCc2c1cc1n(c2=O)Cc2cc3c(CN(C)C)c(O)ccc3nc2-1	3.16

Respectfully, I request viability, T/C for each entry included below.
1. O=C(c1cc(Cc2n[nH]c(=O)c3ccccc23)ccc1F)N1CCN(C(=O)C2CC2)CC1 + CC[C@@]1(O)C(=O)OCc2c1cc1n(c2=O)Cc2cc3c(CN(C)C)c(O)ccc3nc2-1
2. CNCc1ccc(-c2cc(-c3nc(-c4ccc(S(=O)(=O)C(C)C)cc4)cnc3N)on2)cc1 + CC[C@@]1(O)C(=O)OCc2c1cc1n(c2=O)Cc2cc3c(CN(C)C)c(O)ccc3nc2-1
3. Cc1sc2c(c1C)C(c1ccc(Cl)cc1)=NC(CC(=O)Nc1ccc(O)cc1)c1nnc(C)n1-2 (centres undefined) + CC[C@@]1(O)C(=O)OCc2c1cc1n(c2=O)Cc2cc3c(CN(C)C)c(O)ccc3nc2-1

[7.62, 2.78, 3.57]

----------
tested on: VA-ES-BJ tumor spheroid viability; assay: Anticancer human tumor VA-ES-BJ cell line growth inhibition; conditions: second compound 0.3 µM; first compound 0.1 µM; stronger effect = lower value; spheroids with HUVEC and MSC;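 further: spheroids exposed to compounds for seven days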;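 on viability, T/C: percent of DMSO vehicle control viability so 100% = untreated growth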
One threshold, 6%, splits the recorded viability, T/C values: lower ones are Criterion met, equal or higher ones are Criterion not met.

CC(C)n1c(=O)n(C)c2cnc3cc(F)c(-c4ccc(OCCCN5CCCCC5)nc4)cc3c21 + CC[C@@]1(O)C(=O)OCc2c1cc1n(c2=O)Cc2cc3c(CN(C)C)c(O)ccc3nc2-1	Criterion met
COc1cc(C)[nH]c(=O)c1CN1CCc2c(Cl)cc(C(OC)C3COC3)c(Cl)c2C1=O (stereo unspecified) + CC[C@@]1(O)C(=O)OCc2c1cc1n(c2=O)Cc2cc3c(CN(C)C)c(O)ccc3nc2-1	Criterion not met
[2H]c1nc(C)nc([2H])c1-c1cc(NC[C@@H](C)c2cccc3c(C(=O)NC)ccnc23)ncn1 + CC[C@@]1(O)C(=O)OCc2c1cc1n(c2=O)Cc2cc3c(CN(C)C)c(O)ccc3nc2-1	Criterion not met

Next:
Hello, is viability, T/C of the following compound strictly smaller than 6%? Cc1cc(C)c(CNC(=O)c2cc(-c3ccc(CN4CCOCC4)cc3)cc3c2cnn3C2CCCC2)c(=O)[nH]1 + CC[C@@]1(O)C(=O)OCc2c1cc1n(c2=O)Cc2cc3c(CN(C)C)c(O)ccc3nc2-1
Criterion met

----------
test system: VA-ES-BJ tumor spheroid viability; experiment: Anticancer human tumor VA-ES-BJ cell line growth inhibition; settings: second compound 0.3 µM; first compound 1 µM; stronger effect = lower value; spheroids with HUVEC and MSC;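 further: spheroids exposed to compounds for seven days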;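 on viability, T/C: percent of DMSO vehicle control viability so 100% = untreated growth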
Please provide measured viability, T/C for the entries that follow.
Answers are plain numbers, in %.

[2H]c1nc(C)nc([2H])c1-c1cc(NC[C@@H](C)c2cccc3c(C(=O)NC)ccnc23)ncn1 + CC[C@@]1(O)C(=O)OCc2c1cc1n(c2=O)Cc2cc3c(CN(C)C)c(O)ccc3nc2-1	5.88
CC(C)n1c(=O)n(C)c2cnc3cc(F)c(-c4ccc(OCCCN5CCCCC5)nc4)cc3c21 + CC[C@@]1(O)C(=O)OCc2c1cc1n(c2=O)Cc2cc3c(CN(C)C)c(O)ccc3nc2-1	3.49
COc1ccc([C@@H](O)c2cc(-c3ncnc4cc(N5CCOCC5)ccc34)c(F)cc2Cl)nn1 + CC[C@@]1(O)C(=O)OCc2c1cc1n(c2=O)Cc2cc3c(CN(C)C)c(O)ccc3nc2-1	7.21

Provide each entry's viability, T/C from the list below.
1. CC1COCCN1c1cc(-c2ccnn2C)c2ccnc(-c3ccn[nH]3)c2n1 (stereo unspecified) + CC[C@@]1(O)C(=O)OCc2c1cc1n(c2=O)Cc2cc3c(CN(C)C)c(O)ccc3nc2-1
2. Cc1cc(C)c(CNC(=O)c2cc(-c3ccc(CN4CCOCC4)cc3)cc3c2cnn3C2CCCC2)c(=O)[nH]1 + CC[C@@]1(O)C(=O)OCc2c1cc1n(c2=O)Cc2cc3c(CN(C)C)c(O)ccc3nc2-1
3. COc1cc(C)[nH]c(=O)c1CN1CCc2c(Cl)cc(C(OC)C3COC3)c(Cl)c2C1=O (stereo unspecified) + CC[C@@]1(O)C(=O)OCc2c1cc1n(c2=O)Cc2cc3c(CN(C)C)c(O)ccc3nc2-1

[4.65, 5.28, 6.59]

----------
tested on: VA-ES-BJ tumor spheroid viability; assay: Anticancer human tumor VA-ES-BJ cell line growth inhibition; settings: curve of first compound; second compound 0.003 µM; spheroids with HUVEC and MSC;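 further: spheroids exposed to compounds for seven days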
Give pIC50 for every item shown.
One number for each entry, as −log10 of the molar value.

Some solved cases for reference:
Cn1ncnc1[C@H]1c2n[nH]c(=O)c3cc(F)cc(c23)N[C@@H]1c1ccc(F)cc1 + CC[C@@]1(O)C(=O)OCc2c1cc1n(c2=O)Cc2cc3c(CN(C)C)c(O)ccc3nc2-1	6.82
CNCc1ccc(-c2cc(-c3nc(-c4ccc(S(=O)(=O)C(C)C)cc4)cnc3N)on2)cc1 + CC[C@@]1(O)C(=O)OCc2c1cc1n(c2=O)Cc2cc3c(CN(C)C)c(O)ccc3nc2-1	6.59
COc1ccc([C@@H](O)c2cc(-c3ncnc4cc(N5CCOCC5)ccc34)c(F)cc2Cl)nn1 + CC[C@@]1(O)C(=O)OCc2c1cc1n(c2=O)Cc2cc3c(CN(C)C)c(O)ccc3nc2-1	6.02
CC(C)n1c(=O)n(C)c2cnc3cc(F)c(-c4ccc(OCCCN5CCCCC5)nc4)cc3c21 + CC[C@@]1(O)C(=O)OCc2c1cc1n(c2=O)Cc2cc3c(CN(C)C)c(O)ccc3nc2-1	5.40

Now consider a different molecule.
Please tell me: pIC50 of CC1COCCN1c1cc(-c2ccnn2C)c2ccnc(-c3ccn[nH]3)c2n1 (stereo unspecified) + CC[C@@]1(O)C(=O)OCc2c1cc1n(c2=O)Cc2cc3c(CN(C)C)c(O)ccc3nc2-1 , system VA-ES-BJ tumor spheroid viability?
7.25
